Assay: Stability/hydrolysis of monomers in ethanol and PBS buffer followed by TLC (Setup 1)
Type: physicochemical
Details: ethanol/PBS buffer pH 7.4, refrigerator +6° C., after two weeks
MEASURE_NAME: decomposition to free medetomidine (TLC)

[[record]]
molecule = "Cc1cccc(C(C)c2cn(S(C)(=O)=O)cn2)c1C (stereo not shown)"
measure_name = "decomposition to free medetomidine (TLC)"
value_measured = "stable"

[[record]]
molecule = "C=CCNC(=O)n1cnc(C(C)c2cccc(C)c2C)c1 (stereo not shown)"
measure_name = "decomposition to free medetomidine (TLC)"
value_measured = "stable"


----------
Assay: Stability/hydrolysis of monomers in ethanol and PBS buffer followed by TLC (Setup 1)
Format: physicochemical
Conditions: ethanol/PBS buffer pH 7.4, room temperature, after two weeks
MEASURE_NAME: decomposition to free medetomidine (TLC)

[[record]]
compound = "C=CCOC(=O)n1cnc(C(C)c2cccc(C)c2C)c1 (stereo not shown)"
measure_name = "decomposition to free medetomidine (TLC)"
value_measured = "only medetomidine"

[[record]]
compound = "C=CCS(=O)(=O)n1cnc(C(C)c2cccc(C)c2C)c1 (stereo not shown)"
measure_name = "decomposition to free medetomidine (TLC)"
value_measured = "only medetomidine"

